# experimental.target: Cytochrome P450 2C19 (Homo sapiens)
# assay.overview: qHTS Assay for Inhibitors and Substrates of Cytochrome P450 2C19 (AID 899); further: nearly all actives have a fitted effect of over 60% in size
# test.context: recombinant CYP2C19, luciferin-H EGE luminescence; series mostly up to 57.1 µM
Records with an inconclusive call do not appear. Calls of active or inactive are those of the source. The call rests on the fitted dose curve; in most records, active means well fitted inhibition curve with a large enough effect; inconclusive means small, poorly fitted or top-dose-only effect; inactive means no such curve, though single readings can be large or run the other way.
Select the matching outcome among active, inactive

Field: outcome | Entry: NCCCCCCCCCCNS(=O)(=O)c1cccc2c(Cl)cccc12
active

Field: outcome | Entry: c1csc(CNc2ncnc3ccc(-c4ccc5c(c4)OCO5)cc23)c1
active

Field: outcome | Entry: CCCN(CCC)C[C@@H]1CCCCN1CCNC(=O)N1c2ccccc2C(=O)Nc2cccnc21
active

Field: outcome | Entry: CNC(=O)Oc1ccc2c(c1)[C@@]1(C)CCN(C)[C@@H]1N2C
inactive

Field: outcome | Entry: NC1(C(=O)O)C[C@@H](C(=O)O)[C@H](C(=O)O)C1
active

Field: outcome | Entry: CCCCOc1cc(C[C@@H]2CNC(=O)N2)ccc1OC
inactive

Field: outcome | Entry: O=C(O)[C@H]1CN(CCCP(=O)(O)O)CCN1
inactive

Field: outcome | Entry: O=C(O)[C@H]1CN[C@H](C(=O)O)C1
inactive

Field: outcome | Entry: O=Nc1c(-c2c(O)[nH]c3ccccc23)[nH]c2ccccc12
active

Field: outcome | Entry: COc1cccc(OC)c1OCCNC[C@@H]1COc2ccccc2O1
active

Field: outcome | Entry: Fc1ccc(C(c2ccc(F)cc2)N2CCN(C/C=C\c3ccccc3)CC2)cc1
inactive

Field: outcome | Entry: N#CCCN(CC#Cc1ccccc1)OCc1ccccc1
active

Field: outcome | Entry: O=C(O)c1ccc2c3c1cccc3c(=O)n1c3ccccc3nc21
active

Field: outcome | Entry: CC(C)[C@@H]1[C@H]2CC[C@H](C2)[C@H]1N
inactive

Field: outcome | Entry: Nc1c(S(=O)(=O)O)cc(Nc2ccc(Nc3nc(Cl)nc(Nc4ccc(S(=O)(=O)O)cc4)n3)c(S(=O)(=O)O)c2)c2c1C(=O)c1ccccc1C2=O
inactive

Field: outcome | Entry: COC(=O)C12CC3(CCC4C5C(C(OCc6ccccc6)C41)C52)OCCO3 (centres undefined)
active

Field: outcome | Entry: O=S(c1ccccc1)c1ccc2nnnn2n1 (centres undefined)
inactive

Field: outcome | Entry: Cc1ccc(S(=O)(=O)/C=C\C#N)cc1
active

Field: outcome | Entry: CS(=O)(=O)Nc1ccc([N+](=O)[O-])cc1OC1CCCCC1
active
